// data source = ChEMBL document CHEMBL1125607

Species: Rattus norvegicus
measurement.notes: In vitro histamine release by rat mast cells.
conditions: read-out: ED50 (the source's name)
Where a SMILES comes first, the peptide text is derived from it.
compounds and their reported EC50
Please give a number only; it is taken to be in µg/mL.

CC(C)C[C@H](NC(=O)[C@@H](CCCNc1n[nH]c(N)n1)NC(=O)[C@H](CCCNc1n[nH]c(N)n1)NC(=O)[C@H](CO)NC(=O)[C@H](Cc1c[nH]c2ccccc12)NC(=O)[C@H](Cc1c[nH]cn1)NC(=O)[C@@H]1CCC(=O)N1)C(=O)N[C@@H](CCCCNC(C)C)C(=O)N1CCC[C@H]1C(=O)N[C@H](C)C(N)=O = 158
CCCC/N=C(\NC#N)NCCCC[C@H](NC(=O)[C@H](CC(C)C)NC(=O)[C@@H](CCCN=C(N)N)NC(=O)[C@H](Cc1ccc(O)cc1)NC(=O)[C@H](CO)NC(=O)[C@@H](Cc1cccnc1)NC(=O)[C@H](Cc1c[nH]cn1)NC(=O)[C@@H]1CCC(=O)N1)C(=O)N1CCC[C@H]1C(=O)N[C@H](C)C(N)=O = 3.5
CC(C)C[C@H](NC(=O)[C@@H](CCCN=C(N)N)NC(=O)[C@H](Cc1ccc(O)cc1)NC(=O)[C@H](CO)NC(=O)[C@@H](Cc1cccnc1)NC(=O)[C@H](Cc1c[nH]cn1)NC(=O)[C@@H]1CCC(=O)N1)C(=O)N[C@@H](CCCCNc1n[nH]c(N)n1)C(=O)N1CCC[C@H]1C(=O)N[C@H](C)C(N)=O = 19
CC(C)C[C@H](NC(=O)[C@@H](CCCN=C(N)N)NC(=O)[C@H](Cc1ccc(O)cc1)NC(=O)[C@H](CO)NC(=O)[C@@H](CCCCNc1n[nH]c(N)n1)NC(=O)[C@H](Cc1c[nH]cn1)NC(=O)[C@@H]1CCC(=O)N1)C(=O)N[C@@H](CCCCNC(C)C)C(=O)N1CCC[C@H]1C(=O)N[C@H](C)C(N)=O = 9.5
CCCC/N=C(\NC#N)NCCCC[C@@H](NC(=O)[C@H](Cc1c[nH]cn1)NC(=O)[C@@H]1CCC(=O)N1)C(=O)N[C@@H](CO)C(=O)N[C@@H](Cc1ccc(O)cc1)C(=O)N[C@H](CCCCN/C(=N/CCCC)NC#N)C(=O)N[C@@H](CC(C)C)C(=O)N[C@@H](CCCCNC(C)C)C(=O)N1CCC[C@H]1C(=O)N[C@H](C)C(N)=O = 50

# input EC50 for CC(C)C[C@H](NC(=O)[C@@H](Cc1ccc(Nc2n[nH]c(N)n2)cc1)NC(=O)[C@H](Cc1ccc(Nc2n[nH]c(N)n2)cc1)NC(=O)[C@H](CO)NC(=O)[C@H](Cc1c[nH]c2ccccc12)NC(=O)[C@H](Cc1c[nH]cn1)NC(=O)[C@@H]1CCC(=O)N1)C(=O)N[C@@H](CCCCNC(C)C)C(=O)N1CCC[C@H]1C(=O)N[C@H](C)C(N)=O ?
# output 50

# input Which measured EC50 value corresponds to CC(=O)N[C@H](Cc1ccc2ccccc2c1)C(=O)N[C@H](Cc1ccc(F)cc1)C(=O)N[C@H](Cc1c[nH]c2ccccc12)C(=O)N[C@@H](CO)C(=O)N[C@@H](Cc1ccc(O)cc1)C(=O)N[C@H](CCCN=C(N)N)C(=O)N[C@@H](CC(C)C)C(=O)N[C@@H](CCCN=C(N)N)C(=O)N1CCC[C@H]1C(=O)NCC(N)=O (HELM PEPTIDE1{[ac].[O=C([C@@H](Cc1ccc2ccccc2c1)N[*:1])[*:2]].[O=C([C@@H](Cc1ccc(F)cc1)N[*:1])[*:2]].[dW].S.Y.[dR].L.R.P.G.[am]}$$$$V2.0) ?
# output 0.17

# input Which measured EC50 value corresponds to CCCC/N=C(\NC#N)NCCCC[C@@H](NC(=O)[C@H](Cc1c[nH]cn1)NC(=O)[C@@H]1CCC(=O)N1)C(=O)N[C@@H](CO)C(=O)N[C@@H](Cc1ccc(O)cc1)C(=O)N[C@H](CCCN=C(N)N)C(=O)N[C@@H](CC(C)C)C(=O)N[C@@H](CCCCNC(C)C)C(=O)N1CCC[C@H]1C(=O)N[C@H](C)C(N)=O ?
# output 6
